Outcome Measure: melting point

// below: answered molecules
- Smiles Repr: "CCc1c(C)nc2n1N=C(c1ccc(N)cc1)c1cc3c(cc1C2)OCO3"
  melting point: "227 to 228 °C"
- Smiles Repr: "COC(=O)C(C)(C)OCc1cc2nc(Cl)ccc2n1S(=O)(=O)c1ccccc1"
  melting point: "84 to 87 °C"

Next molecule, melting point to be filled in.
Entry CS(=O)(=O)c1ccc(S(=O)(=O)N2CCn3c(c(C(N)=O)c(Cl)c3-c3ccccc3)C2)cc1 , melting point reported as 258 to 259 °C

* * *

Outcome Measure: melting point

// below: answered compounds
- Compound: "N#Cc1ccc([C@H]2CC[C@H](CI)CC2)cc1"
  melting point: "127 °C"
- Compound: "O=[N+]([O-])c1ccc(C2(Br)CCCCC2)cc1"
  melting point: "83.5 to 85.5 °C"
- Compound: "COC(=O)C(Sc1ccccc1)c1ccc(I)cc1 (configuration not stated)"
  melting point: "62.5 to 65 °C"
- Compound: "COc1ccc(C(=O)Nc2ccc(-c3ccc(S(C)=O)cc3)cc2)cc1CCCN(C)C (configuration not stated)"
  melting point: "190 to 192 °C"
- Compound: "CC(=O)NCc1ccc(CC[N+]2([O-])CCC(C3CCc4ccccc43)CC2)cc1 (configuration not stated)"
  melting point: "130 to 131 °C"

Entry NC(=O)N1CCSC1c1ccccc1OCCN1CCN(c2cccc(F)c2)CC1 (configuration not stated) , melting point reported as 142 to 143 °C

Entry C=CC(=O)N1c2ccccc2CC1C(=O)O (configuration not stated) , melting point reported as 158 to 160 °C

Entry COc1ccc(C(=O)C2=C(c3ccccc3)c3ccc(OC)cc3CC2)cc1 , melting point reported as 107 to 108 °C

Entry Fc1ccc(-c2nc(S)ncc2CCN2CCC(=Cc3ccccc3F)CC2)cc1 , melting point reported as 157 to 158 °C

Entry CN1C(=O)[C@H](NC(=O)C(c2ccccc2)c2ccccc2)N=C(c2ccccc2)c2ccccc21 , melting point reported as 200 to 201 °C

Entry C=CCc1c(O)ccc2c1ccc(=O)n2CC=C(C)C , melting point reported as 224 to 228 °C

Entry CS(=O)(=O)c1ccc(-c2cnn(Cc3cccc([N+](=O)[O-])c3)c(=O)c2-c2ccc(F)cc2)cc1 , melting point reported as 156 to 157 °C

Entry CC(=O)Nc1nc2n(n1)Cc1ccccc1-2 , melting point reported as 258 to 259 °C

Entry O=C1c2cc(F)ccc2-n2c1nc1ccccc1c2=O , melting point reported as 273 to 276 °C

All values here come from a melting point compilation (Tetko et al.; mined from patent text by program, amines drawn as free bases though some values may be those of a salt).
